- TESTED SYSTEM: T1, recombinant human activated Factor VII (FVIIa) (human, UniProt P08709 61-212; P08709 213-466, ten glutamate residues of the Gla domain may be gamma-carboxylated)
- T1 construct: chains tethered by a disulfide bond; also called Factor VIIa; rFVIIa
- T1 sequence 1: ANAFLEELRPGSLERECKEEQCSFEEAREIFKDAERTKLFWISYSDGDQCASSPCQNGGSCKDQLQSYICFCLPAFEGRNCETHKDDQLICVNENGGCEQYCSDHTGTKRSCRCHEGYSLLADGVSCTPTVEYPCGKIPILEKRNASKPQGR
- T1 sequence 2: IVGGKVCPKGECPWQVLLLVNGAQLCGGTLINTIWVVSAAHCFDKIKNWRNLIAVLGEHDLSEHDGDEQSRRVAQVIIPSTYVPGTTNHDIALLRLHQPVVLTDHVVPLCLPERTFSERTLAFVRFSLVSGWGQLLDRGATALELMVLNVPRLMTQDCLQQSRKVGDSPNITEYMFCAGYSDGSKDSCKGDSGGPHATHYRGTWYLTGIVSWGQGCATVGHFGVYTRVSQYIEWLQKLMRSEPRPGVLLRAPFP
- EXPERIMENTAL DETAILS: BLI (Fortebio)
PARAMETER: Kd
Give me the value, and tack the unit on after it.

{"BINDER": "VH SEQ ID NO 530 / VL SEQ ID NO 334 (antibody, IgG4, V domains shown, humanized 11F2; IgG4 S228P/kappa) VH: QVQLQESGPGLVEPSQTLSLTCTVSGYSISSDSAWSWIRQPPGKGLEWIGYIQYSGSTNYNPSLKSRVTISRDTSKNQFSLKLSSVTAADTAVYYCARSVNYYGNSFAVGYWGQGTLVTVSS VL: EIVLTQSPATLSLSPGERATLSCRASQGISDYLHWYQQKPGQAPRLLIKYASQPATGIPARFSGSGSGTDFTLTISSLEPEDFAVYYCQNGHSFPLTFGQGTKLEIK", "PARAMETER": "Kd", "RESULT": "1.2 nM"}

The value of Kd measured for the binder VH SEQ ID NO 626 / VL SEQ ID NO 310 (antibody, IgG4, V domains shown, humanized 11F2; IgG4 S228P/kappa) VH: QVQLQESGPGLVKPSQTLSLTCTVSGYSISSDSAWSWIRQPPGKGLEWIGYIQYSGSTNYNPSLKSRVTISRDTSKNQFSLKLSSVTAADTAVYYCARSVNYYGNSFAVGPWGQGTLVTVSS VL: EIVLTQSPATLSLSPGERATLSCRASQGISDYLAWYQQKPGQAPRLLIKYASQPATGIPARFSGSGSGTDFTLTISSLEPEDFAVYYCQNGHSFPLTFGQGTKLEIK turned out to be 9.2 nM

The value of Kd measured for the binder VH SEQ ID NO 578 / VL SEQ ID NO 430 (antibody, IgG4, V domains shown, humanized 11F2; IgG4 S228P/kappa) VH: QVQLQESGPGLVKPSDTLSLTCAVSGYSISSDSAWSWIRQPPGKGLEWIGYIQYSGSTNYNPSLKSRVTMSVDTSKNQFSLKLSSVTALDTAVYYCARSVNYYGNSFAVGPWGQGTLVTVSS VL: EIVLTQSPATLSLSPGERATLSCRASQGVSDYLAWYQQKPGQAPRLLIKYASQPATGIPARFSGSGSGTDFTLTISSLEPEDFGVYYCQNGHSFPLTFGQGTKLEIK turned out to be 820 nM
